Data provenance is ChEMBL document CHEMBL1201862.

- Test system: SN12C
- Protocol: NCI tumour cell line growth inhibition, 48 h
Active and inactive are the calls of the source. No stated cut-off is given here; in the data, active = GI50 up to about 1.1 µM and inactive = higher.
Can you answer with just one of these options? active, inactive

CN(C)CC(C)(C)CN1c2ccccc2Sc2ccccc21 :: inactive
C=C1C(=O)O[C@H]2[C@H]3O[C@@H](C[C@@H]12)[C@@]1(C)CC[C@H](O1)[C@H](C)CCC[C@H]3C :: inactive
CC1=CSC(O)(c2ccc(Cl)cc2)c2noc(=O)n21 (stereo unspecified) :: inactive
O=C(/N=C(\Nc1ccccc1)SCCS/C(=N/C(=O)c1cccs1)Nc1ccccc1)c1cccs1 :: inactive

Task: Dear colleague, could you share the recorded outcome for Nc1ncnc2c1ncn2C1OC(CO)=CC1O (stereo unspecified) when you have a moment?
Output: inactive

Task: And then `Cc1ccc(-c2cc(O)c3cc4c(cc3n2)OCO4)cc1` , what is it?
Output: inactive

Task: And then `O=C(C=P(c1ccccc1)(c1ccccc1)c1ccccc1)CC(=S)CC(=O)C=P(c1ccccc1)(c1ccccc1)c1ccccc1` , what is it?
Output: inactive

Task: And then `O=C1OC(c2ccccc2)=N/C1=C\c1cccc(F)c1` , what is it?
Output: inactive

Task: And then `COc1cc2c(c(OC)c1OC)-c1ccc(SC)c(=O)cc1[C@@H](NCc1ccc(C#N)cc1)CC2` , what is it?
Output: active

Task: And then CC(=O)OCC1OC(NC(=S)CCSc2nc3ccccc3c(=O)n2-c2ccccc2)C(OC(C)=O)C(OC(C)=O)C1OC(C)=O (stereo unspecified) , what is it?
Output: inactive

Task: And then `Oc1cccc2ccc(SSc3ccc4cccc(O)c4n3)nc12` , what is it?
Output: inactive

Task: And then `O=C(CSc1nnc(Cc2ccccc2)o1)Nc1cccc([N+](=O)[O-])c1` , what is it?
Output: inactive

Task: And then CC(C)C1=CC23CCC4C(C)(C(=O)O)CCCC4(C)C2CC1C1C(=O)N(c2ccc(C(=O)O)cc2)C(=O)C13 (stereo unspecified) , what is it?
Output: inactive

Task: And then `Cn1c([C@H](C#N)C(=O)c2cc(O)ccc2[N+](=O)[O-])nc2ccccc21` , what is it?
Output: inactive

Task: And then `CCCC[C@@H](C)/C=C1\CN2CCC[C@H]2[C@@](C)(OCc2ccccc2)[C@@H]1O` , what is it?
Output: inactive

Task: And then COC1CCC(OS(C)(=O)=O)C(CO)O1 (stereo unspecified) , what is it?
Output: inactive

Task: And then OCC(O)C(OC1OC(CO)C(O)C(O)C1O)c1nn(-c2ccc(F)cc2)c2nc3cc(Cl)c(Cl)cc3cc12 (stereo unspecified) , what is it?
Output: inactive

Task: And then `NC(=O)C1=C(c2ccccc2)c2ccccc2C1=O` , what is it?
Output: inactive
